Hi there, I'd appreciate the recorded AC10 for every entry that follows.
Test system: MEF A1-2A-tBid cells, caspase 3/7 luminescence, 3 h
Experiment: caspase-3/7 activation in A1-2A-tBid MEFs, dose response, orthogonal assay for A1 inhibitor project, cell-based, MEF A1-2A-tBid, luminescence, dry powder, set 2 (AID 504359)

These recorded examples may help you get a feel for the data.
Cn1c(=O)c([N+](=O)[O-])c(Cl)c2ccccc21 0.716 µM
Cn1c(=O)c([N+](=O)[O-])c(-n2cnc3ccccc32)c2ccccc21 24.8 µM
O=[N+]([O-])c1cnc2ccccc2c1Sc1ccccc1 7.93 µM
Cc1ccc(Sc2c([N+](=O)[O-])cnc3ccccc23)cc1 5.49 µM

The record that follows has no AC10 shown yet.
Field AC10 (system: MEF A1-2A-tBid cells, caspase 3/7 luminescence, 3 h) for entry Cc1ccc(Sc2c([N+](=O)[O-])c(=O)n(C)c3ccccc23)cc1 = 7.45 µM

====

Assay: caspase-3/7 activation in A1-2A-tBid MEFs, dose response, orthogonal assay for A1 inhibitor project, cell-based, MEF A1-2A-tBid, luminescence, dry powder, set 2 (AID 504359)
Details: MEF A1-2A-tBid cells, caspase 3/7 luminescence, 3 h; at 35 µM (top of the series)
EXPERIMENTAL_READOUT: caspase activation (%)
Numbers only, in %.

These recorded examples may help you get a feel for the data.
COMPOUND	caspase activation [%]
O=c1oc2ccccc2c(Sc2ccccc2)c1[N+](=O)[O-]	-5.14
Cn1c(=O)c([N+](=O)[O-])c(Nc2ccc(Cl)cc2)c2ccccc21	-0.562
O=C(Oc1cccc(/C=N/Nc2nc(Nc3ccccc3)nc(N3CCOCC3)n2)c1)c1ccco1	3.43
Cc1ccc(Sc2cc(=O)n(C)c3ccccc23)cc1	-7.35
CN1C(=O)C(C)(C)N(Cc2ccccc2)c2ccccc21	0.072

// each listed compound needs a value for caspase activation
1. Cc1ccc(Nc2c([N+](=O)[O-])c(=O)oc3ccccc23)cc1
2. Cc1ccc(Nc2c([N+](=O)[O-])c(=O)n(C)c3ccccc23)cc1
3. CCSc1c([N+](=O)[O-])c(=O)oc2ccccc12
4. O=c1oc2ccccc2c(Nc2cc(Cl)cc(Cl)c2)c1[N+](=O)[O-]
5. Cc1ccc(Sc2c([N+](=O)[O-])c(=O)oc3ccccc23)cc1

Response:
1: 1.44; 2: -0.806; 3: -3.21; 4: -1.39; 5: -3.75

// each listed compound needs a value for caspase activation
1. CCOC(=O)N1CCN(c2c([N+](=O)[O-])c(=O)n(C)c3ccccc23)CC1
2. O=c1oc2ccccc2c(Cl)c1[N+](=O)[O-]
3. C/C1=C/C(=O)O[C@@H]2C[C@@H](CC[C@H](C)/C=C\CC1)O[C@@](O)(C1CSC(=O)N1)C2 (stereo partly specified)
4. CCOCCCNc1c([N+](=O)[O-])c(=O)n(C)c2ccccc12
5. Cn1c(=O)c([N+](=O)[O-])c(Oc2ccccc2)c2ccccc21
6. O=c1oc2ccccc2c(N2CCCCC2)c1[N+](=O)[O-]

Response:
[-0.293, -6.09, 3.32, 0.513, 0.967, -2.24]
